Sourced from the RNAGym collection of RNA variant scans (doi:10.1101/gad.245936.114)

B1: tRNA (parent)
chain: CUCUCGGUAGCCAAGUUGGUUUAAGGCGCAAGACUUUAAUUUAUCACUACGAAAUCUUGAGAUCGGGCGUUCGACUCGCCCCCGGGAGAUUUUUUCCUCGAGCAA

Variants of: B1
Assay: nonsense suppression (GFP-seq) (ratio to wild type); higher = more function; SUP4oc tRNA, yeast GFP reporter sort-seq
This sample holds only a part of the variants without activity.
So basically: nonsense suppression at 0.2 or higher? That is t. Lower than 0.2? That is f.

Reference set, count: 3
C5G U20G C75G G88U | f
C5A A24U G66A | f
G28A G84A | f

## Task Hello, I need to know if C34U A62G has measured nonsense suppression not below 0.2. Thanks!
## Result f
